- studyTarget: Hypoxia-inducible factor 1-alpha (Homo sapiens)
- protocolText: Inhibition of HIF1alpha in human U251 cells under normoxic condition by luciferase reporter gene assay
- Format: cell-based, U-251
Exercise: for every item that follows, state its recorded pIC50.
One number for each entry, as −log10 of the molar value.

Please review the entries below; each comes with its answer.
{"columns": ["chemicalSmiles", "pIC50"],
 "data": [
  ["CCc1c(C)nc(-c2ccc(NC(=O)CCl)cn2)nc1O", 5.26],
  ["Cc1nc(-c2ccc(NC(=O)CCl)cn2)[nH]c(=O)c1F", 5.22],
  ["COc1cc(C(F)(F)F)nc(-c2ccc(NC(=O)CCl)cn2)n1", 4.82],
  ["C=CCOc1nc(-c2ccc(NC(=O)CCl)cn2)nc(C)c1CC", 4.66],
  ["C=CCOc1cc(C(F)(F)F)nc(-c2ccc(NC(=O)CCl)cn2)n1", 4.52]
]}

Batch request: pIC50 per item, same order as input.
1. O=C(CCl)Nc1ccc(-c2nc(Cl)cc(C(F)(F)F)n2)nc1
2. Cc1nc(-c2ccc(NC(=O)CCl)cn2)nc(O)c1Cc1ccccc1
3. O=C(CCl)Nc1ccc(-c2nc(O)cc(CCl)n2)nc1

Reply |
[5.00, 5.00, 5.26]

Would you mind listing pIC50 for each of the following compounds?
1. O=C(CCl)Nc1ccc(-c2nc(O)cc(C(F)(F)F)n2)nc1
2. C=CCOc1nc(-c2ccc(NC(=O)CCl)cn2)nc(C)c1Cl
3. Nc1ccc(-c2nc(O)cc(CCl)n2)nc1

Reply |
5.10
5.10
4.66

* * *

- studyTarget: Hypoxia-inducible factor 1-alpha (Homo sapiens)
- protocolText: Inhibition of HIF1alpha in human U251 cells under hypoxic condition by luciferase reporter gene assay
- Type: cell-based, U-251
Checkbox rule: IC50 lower than 4 µM = Yes; IC50 not lower than 4 µM = No.

{"columns": ["chemicalSmiles", "studyTarget", "classLabel"],
 "data": [
  ["O=C(CCl)Nc1ccc(-c2nc(O)cc(C(F)(F)F)n2)nc1", "Hypoxia-inducible factor 1-alpha (Homo sapiens)", "Yes"],
  ["CCOc1cc(C(F)(F)F)nc(-c2ccc(NC(=O)CCl)cn2)n1", "Hypoxia-inducible factor 1-alpha (Homo sapiens)", "No"],
  ["Nc1ccc(-c2nc(O)cc(C(F)(F)F)n2)nc1", "Hypoxia-inducible factor 1-alpha (Homo sapiens)", "No"],
  ["C=CCOc1cc(C(F)(F)F)nc(-c2ccc(NC(=O)CCl)cn2)n1", "Hypoxia-inducible factor 1-alpha (Homo sapiens)", "Yes"]
]}

Ask | Please indicate whether the reported IC50 of `C=CCOc1nc(-c2ccc(N)cn2)nc(C)c1CC` is strictly below 4 µM.
Reply | No

Ask | In the record for `O=C(Nc1ccc(-c2nc(O)cc(C(F)(F)F)n2)nc1)C(F)(F)Cl` , is IC50 less than 4 µM?
Reply | No

Ask | Lab note: confirm whether the reported IC50 for this compound is below 4 µM, equality not counting. compound: `Cc1nc(-c2ccc(NC(=O)CCl)cn2)nc(O)c1C`
Reply | No

* * *

- Test system: OVCAR-3
- protocolText: Antiproliferative activity against human OVCAR-3 cells by [3H]thymidine incorporation assay
- Type: functional, cell-based
- testSettings: OVCAR-3, 3 h
measure: IC50 (µM)
Answers are plain numbers, in µM.

Notebook: `O=C(CCl)Nc1ccc(-c2nc(O)cc(C(F)(F)F)n2)nc1` , IC50 read as 3.5

* * *

Consider the following molecules; for each one, report its IC50.
- studyTarget: Hypoxia-inducible factor 1-alpha (Homo sapiens, UniProt Q16665)
- Sequence (Q16665 whole entry): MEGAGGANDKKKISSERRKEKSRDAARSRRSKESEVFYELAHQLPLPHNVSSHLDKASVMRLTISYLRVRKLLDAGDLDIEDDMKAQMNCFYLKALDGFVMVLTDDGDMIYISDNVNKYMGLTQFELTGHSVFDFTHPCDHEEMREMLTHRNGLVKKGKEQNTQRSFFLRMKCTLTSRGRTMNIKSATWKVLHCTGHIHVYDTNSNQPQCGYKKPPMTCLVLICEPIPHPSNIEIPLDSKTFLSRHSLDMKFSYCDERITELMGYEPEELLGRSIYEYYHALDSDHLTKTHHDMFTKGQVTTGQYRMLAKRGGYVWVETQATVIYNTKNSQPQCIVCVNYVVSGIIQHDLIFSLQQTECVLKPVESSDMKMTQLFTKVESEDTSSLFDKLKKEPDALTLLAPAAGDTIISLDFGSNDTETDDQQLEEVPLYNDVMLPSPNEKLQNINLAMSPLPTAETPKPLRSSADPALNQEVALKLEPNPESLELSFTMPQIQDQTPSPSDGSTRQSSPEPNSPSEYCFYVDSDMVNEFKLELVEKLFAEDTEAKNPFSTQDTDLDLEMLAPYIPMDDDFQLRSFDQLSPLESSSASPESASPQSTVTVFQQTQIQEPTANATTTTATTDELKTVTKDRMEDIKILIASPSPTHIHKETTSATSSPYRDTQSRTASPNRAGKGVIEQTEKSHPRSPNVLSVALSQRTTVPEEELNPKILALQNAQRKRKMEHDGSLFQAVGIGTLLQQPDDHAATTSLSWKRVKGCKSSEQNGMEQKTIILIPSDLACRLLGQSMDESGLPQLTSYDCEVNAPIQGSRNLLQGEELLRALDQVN
- protocolText: Inhibition of HIF1alpha in human U251 cells under hypoxic condition by luciferase reporter gene assay
- Format: cell-based, U-251
Answers are plain numbers, in nM.

{"columns": ["chemicalSmiles", "studyTarget", "unitAbbreviation", "IC50"],
 "data": [
  ["O=C(CCl)Nc1ccc(-c2nc(Cl)cc(C(F)(F)F)n2)nc1", "Hypoxia-inducible factor 1-alpha (Homo sapiens, UniProt Q16665)", "nM", 1400],
  ["C=CCOc1nc(-c2ccc(NC(=O)CCl)cn2)nc(C)c1CC", "Hypoxia-inducible factor 1-alpha (Homo sapiens, UniProt Q16665)", "nM", 1800],
  ["C=CCOc1nc(-c2ccc(NC(=O)CCl)cn2)nc(C)c1Cl", "Hypoxia-inducible factor 1-alpha (Homo sapiens, UniProt Q16665)", "nM", 1500]
]}

The following molecules each have a reported value; give each one's IC50.
1. O=C(CCl)Nc1ccc(-c2nc(O)cc(CCl)n2)nc1
2. Cc1nc(-c2ccc(NC(=O)CCl)cn2)[nH]c(=O)c1F
3. Cc1nc(-c2ccc(NC(=O)CCl)cn2)[nH]c(=O)c1Cl

Reply |
1: 1500; 2: 2000; 3: 5500

* * *

- studyTarget: Hypoxia-inducible factor 1-alpha (Homo sapiens, UniProt Q16665)
- protocolText: Inhibition of HIF1alpha in human U251 cells under hypoxic condition by luciferase reporter gene assay
- Format: cell-based, U-251
Would you mind telling me the reported IC50 of each entry?
Numbers only, in µM.

Observe how each entry below is paired with its result.
{"columns": ["chemicalSmiles", "IC50 / µM"],
 "data": [
  ["Cc1nc(-c2ccc(NC(=O)CCl)cn2)nc(O)c1Cc1ccccc1", 4],
  ["CCc1c(C)nc(-c2ccc(NC(=O)CCl)cn2)nc1O", 1.5],
  ["Nc1ccc(-c2nc(O)cc(CCl)n2)nc1", 6]
]}

From here, focus on the item given below.
Input `COc1cc(C(F)(F)F)nc(-c2ccc(NC(=O)CCl)cn2)n1` . Output IC50: 3.5

* * *

- studyTarget: Hypoxia-inducible factor 1-alpha (Homo sapiens)
- protocolText: Inhibition of HIF1alpha in human U251 cells under hypoxic condition by luciferase reporter gene assay
- Type: cell-based, U-251
pIC50: −log10 of the molar value.
Give pIC50 for every item shown.

{"columns": ["chemicalSmiles", "measure", "value"],
 "data": [
  ["Cc1nc(-c2ccc(N)cn2)nc(O)c1Cl", "pIC50", "< 4.52"],
  ["Cc1nc(-c2ccc(N)cn2)nc(O)c1Cc1ccccc1", "pIC50", "< 4.52"]
]}

Attention now shifts to the item below.
pIC50 for `CCc1c(C)nc(-c2ccc(N)cn2)nc1O` is < 4.52

Sourced from ChEMBL document CHEMBL1268970
